Tested on: HT-29
assay-procedure: Cytotoxicity against human HT-29 cells after 72 hrs by MTT assay
Format: functional, cell-based
details: HT-29, 72 h
test-readout: IC50 (µM)
Number only, in µM; omit the unit.

Output measured IC50 for this item: Cc1cccc2c1cnn2-c1ccc(NC(=O)Nc2ccc(Cl)c(C(F)(F)F)c2)cc1
32

Output measured IC50 for this item: O=C(Nc1ccc(-n2ncc3c(C(F)(F)F)cccc32)cc1)Nc1ccc(C(F)(F)F)cc1
3.3

Output measured IC50 for this item: O=C(Nc1ccc(-n2ncc3c(C(F)(F)F)cccc32)cc1)Nc1ccc(Cl)c(C(F)(F)F)c1
2.9

Output measured IC50 for this item: CNc1cccc2c1cnn2-c1ccc(NC(=O)Nc2ccc(Cl)c(C(F)(F)F)c2)cc1
5.9

Output measured IC50 for this item: CNC(=O)c1cc(Oc2ccc(NC(=O)Nc3ccc(Cl)c(C(F)(F)F)c3)cc2)ccn1
4

Output measured IC50 for this item: O=C(Nc1ccc(-n2ncc3c(Cl)cccc32)cc1)Nc1ccc(Cl)c(C(F)(F)F)c1
4.6

Output measured IC50 for this item: O=C(Nc1ccc(-n2ncc3c(Cl)cccc32)cc1)Nc1ccc(C(F)(F)F)cc1
1

Output measured IC50 for this item: O=C(Nc1ccc(-n2ncc3c(F)cccc32)cc1)Nc1ccc(Cl)c(C(F)(F)F)c1
8.2

Output measured IC50 for this item: O=C(Nc1ccc(-n2ncc3ccncc32)cc1)Nc1ccc(Cl)c(C(F)(F)F)c1
29.5

Output measured IC50 for this item: O=C(Nc1ccc(-n2ncc3cnccc32)cc1)Nc1ccc(Cl)c(C(F)(F)F)c1
10.5

Output measured IC50 for this item: O=C(Nc1ccc(-n2ncc3ccccc32)cc1)Nc1ccc(Cl)c(C(F)(F)F)c1
18.2

Output measured IC50 for this item: O=C(Nc1ccc(-n2ncc3c(Br)cccc32)cc1)Nc1ccc(Cl)c(C(F)(F)F)c1
4

====

System: SGC-7901
assay-procedure: Cytotoxicity against human SGC7901 cells after 72 hrs by MTT assay
Format: functional, cell-based
details: SGC-7901, 72 h
Hi! Just check whether IC50 is below 7 µM. Below gives y, equal or above gives n.

Is IC50 strictly under 7 µM for the entry O=C(Nc1ccc(-n2ncc3c(Br)cccc32)cc1)Nc1ccc(Cl)c(C(F)(F)F)c1 ?
n

Is IC50 strictly under 7 µM for the entry O=C(Nc1ccc(-n2ncc3cnccc32)cc1)Nc1ccc(Cl)c(C(F)(F)F)c1 ?
n

Is IC50 strictly under 7 µM for the entry O=C(Nc1ccc(-n2ncc3c(C(F)(F)F)cccc32)cc1)Nc1ccc(C(F)(F)F)cc1 ?
y

Is IC50 strictly under 7 µM for the entry O=C(Nc1ccc(-n2ncc3c(Cl)cccc32)cc1)Nc1ccc(C(F)(F)F)cc1 ?
y

Is IC50 strictly under 7 µM for the entry O=C(Nc1ccc(-n2ncc3c(Cl)cccc32)cc1)Nc1ccc(Cl)c(C(F)(F)F)c1 ?
y

Is IC50 strictly under 7 µM for the entry O=C(Nc1ccc(-n2ncc3c(C(F)(F)F)cccc32)cc1)Nc1ccc(Cl)c(C(F)(F)F)c1 ?
n

Is IC50 strictly under 7 µM for the entry O=C(Nc1ccc(-n2ncc3cccnc32)cc1)Nc1ccc(Cl)c(C(F)(F)F)c1 ?
n

====

System: LoVo
assay-procedure: Cytotoxicity against human LoVo cells after 72 hrs by MTT assay
Type: functional, cell-based
Consider the following partition of reported IC50 into named classes: low range: < 4 µM; mid range: ≥ 4 µM and < 7 µM; high range: ≥ 7 µM

Please report the category associated with O=C(Nc1ccc(-n2ncc3ccccc32)cc1)Nc1ccc(Cl)c(C(F)(F)F)c1 , nothing else.
high range

Please report the category associated with O=C(Nc1ccc(-n2ncc3cccnc32)cc1)Nc1ccc(Cl)c(C(F)(F)F)c1 , nothing else.
high range

Please report the category associated with O=C(Nc1ccc(-n2ncc3c(C(F)(F)F)cccc32)cc1)Nc1ccc(Cl)c(C(F)(F)F)c1 , nothing else.
low range

Please report the category associated with COc1cccc2c1cnn2-c1ccc(NC(=O)Nc2ccc(Cl)c(C(F)(F)F)c2)cc1 , nothing else.
high range

Please report the category associated with O=C(Nc1ccc(-n2ncc3c(Cl)cccc32)cc1)Nc1ccc(Cl)c(C(F)(F)F)c1 , nothing else.
low range

Please report the category associated with CNC(=O)c1cc(Oc2ccc(NC(=O)Nc3ccc(Cl)c(C(F)(F)F)c3)cc2)ccn1 , nothing else.
low range

Please report the category associated with O=C(Nc1ccc(-n2ncc3c(C(F)(F)F)cccc32)cc1)Nc1ccc(C(F)(F)F)cc1 , nothing else.
low range

Please report the category associated with O=C(Nc1ccc(-n2ncc3c(F)cccc32)cc1)Nc1ccc(Cl)c(C(F)(F)F)c1 , nothing else.
high range

Please report the category associated with CNc1cccc2c1cnn2-c1ccc(NC(=O)Nc2ccc(Cl)c(C(F)(F)F)c2)cc1 , nothing else.
mid range

Please report the category associated with O=C(Nc1ccc(-n2ncc3c(Br)cccc32)cc1)Nc1ccc(Cl)c(C(F)(F)F)c1 , nothing else.
low range

Please report the category associated with O=C(Nc1ccc(-n2ncc3cnccc32)cc1)Nc1ccc(Cl)c(C(F)(F)F)c1 , nothing else.
high range

Please report the category associated with O=C(Nc1ccc(-n2ncc3c(Cl)cccc32)cc1)Nc1ccc(C(F)(F)F)cc1 , nothing else.
mid range
